The following compounds are listed with their measured NF-kB SEAP reporter activity values.
tested on: RAW-Dual; assay: NF-kB SEAP reporter activity, fold change vs agonist alone; cytotoxicity flag (confluency mask): not cytotoxic; higher = enhanced NF-kB activity; conditions: agonist: Pam3CSK4 (TLR2/1) 0.1 ug/mL
Whole data set: some 2,900 compounds, median “NF-kB SEAP reporter activity, fold change vs agonist alone” near 0.99, cut for the highest 2% near 2.6. Only a selection was taken, and the highest values are over-represented in it overall.
measured endpoint: NF-kB SEAP reporter activity

compound: COc1cc(/C=C/C(=O)O)ccc1O (library stock concentration (final ~1000-fold dilution): 10 mM)
result value: 1.04
//
compound: COc1cc(OC)c(C=CS(=O)(=O)Cc2ccc(OC)c(NCC(=O)O)c2)c(OC)c1 (library stock concentration (final ~1000-fold dilution): 10 mM)
result value: 2.56
//
compound: CC(C(=O)Nc1cccc(N=Cc2c(O)ccc3ccccc23)c1)c1ccccc1 (configuration not stated) (library stock concentration (final ~1000-fold dilution): 10 mM)
result value: 1.74
//
compound: COc1ccc(/C=C/C(=O)O)cc1OC (library stock concentration (final ~1000-fold dilution): 10 mM)
result value: 1.14
//
compound: CC(C)CN(CC(O)C(Cc1ccccc1)NC(=O)OC1COC2OCCC12)S(=O)(=O)c1ccc(N)cc1.CCO (configuration not stated) (library stock concentration (final ~1000-fold dilution): 10 mM)
result value: 1.43
//
compound: CC(NC(=O)c1ccccc1N=Cc1c(O)ccc2ccccc12)c1ccccc1 (configuration not stated) (library stock concentration (final ~1000-fold dilution): 10 mM)
result value: 1.53
//
compound: CCN(CCO)CCCC(C)Nc1ccnc2cc(Cl)ccc12.O=S(=O)(O)O (configuration not stated) (library stock concentration (final ~1000-fold dilution): 10 mM water)
result value: 0.763
//
compound: CS(=O)(=O)c1ccc(-c2cnc(N)c(C(=O)Nc3ccccc3)n2)cc1 (library stock concentration (final ~1000-fold dilution): 10 mM)
result value: 1.48
//
compound: Cc1ccc(NCCN(C)CCNc2ccnc3cc(Cl)ccc23)c2c(=O)c3ccccc3sc12 (library stock concentration (final ~1000-fold dilution): 2 mM)
result value: 1.06
//
compound: CS(=O)(=O)c1ccc(C(=O)Nc2ccc(Cl)c(-c3ccccn3)c2)c(Cl)c1 (library stock concentration (final ~1000-fold dilution): 10 mM)
result value: 1.01
//
compound: CNC(C)C(=O)NC(C(=O)N1CCCC1C(=O)Nc1snnc1-c1ccccc1)C1CCCCC1 (configuration not stated) (library stock concentration (final ~1000-fold dilution): 10 mM)
result value: 0.8
//
compound: COc1cc(OC)cc(-c2cc3cnc(N)nc3nc2NC(=O)NC(C)(C)C)c1 (library stock concentration (final ~1000-fold dilution): 10 mM)
result value: 0.747
//
compound: CC(C)CC(NC(=O)C(NC(=O)c1cccc(-c2ccccc2)n1)C(C)O)B(O)O (configuration not stated) (library stock concentration (final ~1000-fold dilution): 10 mM)
result value: 0.594
//
compound: OCc1ccccc1OC1OC(CO)C(O)C(O)C1O (configuration not stated) (library stock concentration (final ~1000-fold dilution): 10 mM)
result value: 1.19
//
compound: Cc1cn(C2CC(O)C(CO)O2)c(=O)[nH]c1=O (configuration not stated) (library stock concentration (final ~1000-fold dilution): 10 mM)
result value: 1.11
//
compound: CCOC(=O)C(CCc1ccccc1)NC(C)C(=O)N1C(C(=O)O)CC2CCCCC21 (configuration not stated) (library stock concentration (final ~1000-fold dilution): 10 mM)
result value: 0.933
//
compound: CC(C)(C)C(=O)N1N=CCC1c1ccccc1 (configuration not stated) (library stock concentration (final ~1000-fold dilution): 10 mM)
result value: 1.3
//
compound: COc1cc2c(cc1OC)C(=O)C(CC1CCN(Cc3ccccc3)CC1)C2.Cl (configuration not stated) (library stock concentration (final ~1000-fold dilution): 10 mM water)
result value: 1.29
//
compound: Cl.Cn1cc(C(=O)C2CCc3nc[nH]c3C2)c2ccccc21 (configuration not stated) (library stock concentration (final ~1000-fold dilution): 10 mM)
result value: 0.877
//
compound: COc1cc(C=CC(=O)CC(=O)C=Cc2ccc(O)c(OC)c2)ccc1O (library stock concentration (final ~1000-fold dilution): 100 mM)
result value: 0.242
//
compound: COc1cc2c(cc1Cc1cccc(Cl)c1F)c(=O)c(C(=O)O)cn2C(CO)C(C)C (configuration not stated) (library stock concentration (final ~1000-fold dilution): 10 mM)
result value: 0.625
//
compound: CC(C)(C)c1ccc(S(=O)(=O)NCc2ccc(C(=O)Nc3cccnc3)cc2)cc1 (library stock concentration (final ~1000-fold dilution): 10 mM)
result value: 0.706

Where do the numbers come from? From the supplement of paper PMC10037445.
